These entries and their values trace back to the nanobody polyreactivity screen of Harvey et al. (2022).

test: yeast display, Sf9 membrane polyspecificity reagent, FACS + sequencing; frameworks hold sequencing errors
QUANTITY: polyreactivity (PSR sort gate)

# SEQ, RECORDED MEASUREMENT
records = [
    ("QVQLVESGGGLVQAGGSLRLSCAASGRITVFYTMGWYRQAPGKERELVATITRSGSRTYYADSVKGRFTISRDNAKNTVYLQMNSLKPEDTAVYYCARSQAVYDGWFAKFGYWGQGTQVTVSS", "low polyreactivity"),
    ("QVQLVESGGGLVQAGGSLRLTCAASGRTFGYYTMGWYRQAPGKERELVATISSDGTTNYADSVKGRFTISRDNAKNTVYLQMNSLKPEDTAVYYCNADFRLQYYYRIYDYWGQGTQVTVSS", "low polyreactivity"),
    ("QVQLVESGVGLVQAGGSLRLSCAASGRTFPPYAMGWYRQAPGKERELVAAISSDGSTYADSVKGRFTISRDNAKNTVYLQMNSLKPEDTAVYYCAVDYTYSYRKHFGHILYSWGQGTQVTVSS", "low polyreactivity"),
]
